Heads up, these compounds all have Kd values measured for CA III (Homo sapiens).

>  <compound>
NS(=O)(=O)c1ccccc1Cl [Compound 1, 2-chloro-benzenesulfonamide]

>  <reading qualifier>
>

>  <Kd, µM>
200

$$$$
>  <compound>
NS(=O)(=O)c1cc(C2(O)NC(=O)c3ccccc32)ccc1Cl (stereo not shown)

>  <reading qualifier>
=

>  <Kd, µM>
17

$$$$
>  <compound>
NS(=O)(=O)c1cc2c(cc1C(F)(F)F)NCNS2(=O)=O [Compound 10, hydroflumethiazide]

>  <reading qualifier>
>

>  <Kd, µM>
200

$$$$
>  <compound>
NS(=O)(=O)c1cc2c(cc1Cl)NCNS2(=O)=O [Compound 4, hydrochlorothiazide]

>  <reading qualifier>
=

>  <Kd, µM>
200

$$$$

###

pKd: −log10 of the molar value.
// values below are pKd; system is CA VI (Homo sapiens)
Sequence (P23280 18-308): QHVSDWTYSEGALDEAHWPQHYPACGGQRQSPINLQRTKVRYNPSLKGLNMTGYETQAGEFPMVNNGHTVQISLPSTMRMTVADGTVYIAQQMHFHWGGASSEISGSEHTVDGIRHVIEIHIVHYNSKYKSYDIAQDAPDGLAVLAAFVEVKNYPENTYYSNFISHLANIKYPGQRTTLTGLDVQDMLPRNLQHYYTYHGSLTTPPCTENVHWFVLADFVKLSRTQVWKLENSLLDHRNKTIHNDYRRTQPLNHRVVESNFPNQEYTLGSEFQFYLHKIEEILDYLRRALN
property: pKd

>  <molecule>
NS(=O)(=O)c1cc2c(cc1Cl)N=C(CSCc1ccccc1)NS2(=O)=O [Compound 8, benzthiazide]

>  <val>
6.30

$$$$
>  <molecule>
NS(=O)(=O)c1cc2c(cc1C(F)(F)F)NCNS2(=O)=O [Compound 10, hydroflumethiazide]

>  <val>
4.54

$$$$
>  <molecule>
NS(=O)(=O)c1ccccc1Cl [Compound 1, 2-chloro-benzenesulfonamide]

>  <val>
5.59

$$$$
>  <molecule>
NS(=O)(=O)c1cc(C2(O)NC(=O)c3ccccc32)ccc1Cl (stereo not shown)

>  <val>
6.96

$$$$
>  <molecule>
CCC1NC(=O)c2cc(S(N)(=O)=O)c(Cl)cc2N1 (stereo not shown)

>  <val>
5.41

$$$$
>  <molecule>
Cc1ccccc1N1C(=O)c2cc(S(N)(=O)=O)c(Cl)cc2NC1C (stereo not shown)

>  <val>
6.00

$$$$
>  <molecule>
NS(=O)(=O)c1cc2c(cc1Cl)NCNS2(=O)=O [Compound 4, hydrochlorothiazide]

>  <val>
6.08

$$$$
>  <molecule>
C[C@@H]1CCC[C@H](C)N1NC(=O)c1ccc(Cl)c(S(N)(=O)=O)c1 [Compound 13, clopamide]

>  <val>
6.33

$$$$
>  <molecule>
NS(=O)(=O)c1cc2c(cc1Cl)N=CNS2(=O)=O [Compound 3, chlorothiazide]

>  <val>
6.21

$$$$
>  <molecule>
Cc1cccc(C)c1NC(=O)c1cc(S(N)(=O)=O)c(Cl)cc1O [Compound 14, xipamide]

>  <val>
4.44

$$$$
>  <molecule>
NS(=O)(=O)c1cc2c(cc1Cl)NC(c1ccccc1)NC2=O (stereo not shown)

>  <val>
5.28

$$$$
>  <molecule>
NS(=O)(=O)c1cc2c(cc1Cl)CN(C1CCCCC1)C2=O [Compound 17, Clorexolone]

>  <val>
6.38

$$$$
>  <molecule>
NS(=O)(=O)c1cc2c(cc1Cl)NC(C1CC3C=CC1C3)NS2(=O)=O (stereo not shown) [Compound 6, cyclothiazide]

>  <val>
6.37

$$$$
>  <molecule>
CN1C(CSCC(F)(F)F)Nc2cc(Cl)c(S(N)(=O)=O)cc2S1(=O)=O (stereo not shown) [Compound 7, polythiazide]

>  <val>
6.24

$$$$
>  <molecule>
NS(=O)(=O)c1cc2c(cc1C(F)(F)F)NC(Cc1ccccc1)NS2(=O)=O (stereo not shown) [Compound 11, bendroflumethiazide]

>  <val>
5.28

$$$$
>  <molecule>
C=CCSCC1Nc2cc(Cl)c(S(N)(=O)=O)cc2S(=O)(=O)N1 (stereo not shown) [Compound 9, althiazide]

>  <val>
6.31

$$$$

###

Target: CA VB (Homo sapiens)
Sequence (Q9Y2D0 34-317): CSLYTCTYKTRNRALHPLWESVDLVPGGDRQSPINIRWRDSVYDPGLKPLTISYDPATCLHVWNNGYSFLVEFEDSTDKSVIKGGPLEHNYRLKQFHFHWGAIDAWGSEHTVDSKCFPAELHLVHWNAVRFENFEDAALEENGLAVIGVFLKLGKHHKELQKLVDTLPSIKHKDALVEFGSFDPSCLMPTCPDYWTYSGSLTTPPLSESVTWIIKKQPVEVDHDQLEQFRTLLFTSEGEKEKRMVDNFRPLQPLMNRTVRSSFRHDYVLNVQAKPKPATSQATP
Test: Fluorescence-based thermal shift assay (FTSA)
pKd: −log10 of the molar value.
Decision: pKd >= 6 yields y, all other cases yield n.

>  <compound>
NS(=O)(=O)c1cc(Cl)c(Cl)c(S(N)(=O)=O)c1 [Compound 2, Dichlorphenamide]

>  <category label>
y

$$$$
>  <compound>
NS(=O)(=O)c1cc2c(cc1Cl)N=CNS2(=O)=O [Compound 3, chlorothiazide]

>  <category label>
y

$$$$
>  <compound>
Cc1cccc(C)c1NC(=O)c1cc(S(N)(=O)=O)c(Cl)cc1O [Compound 14, xipamide]

>  <category label>
n

$$$$
>  <compound>
NS(=O)(=O)c1cc2c(cc1Cl)NC(C1CC3C=CC1C3)NS2(=O)=O (stereo not drawn) [Compound 6, cyclothiazide]

>  <category label>
y

$$$$
>  <compound>
C=CCSCC1Nc2cc(Cl)c(S(N)(=O)=O)cc2S(=O)(=O)N1 (stereo not drawn) [Compound 9, althiazide]

>  <category label>
y

$$$$
>  <compound>
NS(=O)(=O)c1cc2c(cc1Cl)N=C(CSCc1ccccc1)NS2(=O)=O [Compound 8, benzthiazide]

>  <category label>
y

$$$$
>  <compound>
CC1Cc2ccccc2N1NC(=O)c1ccc(Cl)c(S(N)(=O)=O)c1 (stereo not drawn) [Compound 12, Indapamide]

>  <category label>
y

$$$$
>  <compound>
CN1C(CSCC(F)(F)F)Nc2cc(Cl)c(S(N)(=O)=O)cc2S1(=O)=O (stereo not drawn) [Compound 7, polythiazide]

>  <category label>
y

$$$$
>  <compound>
NS(=O)(=O)c1cc2c(cc1C(F)(F)F)NC(Cc1ccccc1)NS2(=O)=O (stereo not drawn) [Compound 11, bendroflumethiazide]

>  <category label>
y

$$$$
>  <compound>
NS(=O)(=O)c1cc2c(cc1Cl)NCNS2(=O)=O [Compound 4, hydrochlorothiazide]

>  <category label>
y

$$$$
>  <compound>
NS(=O)(=O)c1cc2c(cc1Cl)NC(c1ccccc1)NC2=O (stereo not drawn)

>  <category label>
n

$$$$
>  <compound>
NS(=O)(=O)c1cc2c(cc1Cl)CN(C1CCCCC1)C2=O [Compound 17, Clorexolone]

>  <category label>
y

$$$$
>  <compound>
NS(=O)(=O)c1cc(C2(O)NC(=O)c3ccccc32)ccc1Cl (stereo not drawn)

>  <category label>
y

$$$$
>  <compound>
NS(=O)(=O)c1ccccc1Cl [Compound 1, 2-chloro-benzenesulfonamide]

>  <category label>
y

$$$$
>  <compound>
CCC1NC(=O)c2cc(S(N)(=O)=O)c(Cl)cc2N1 (stereo not drawn)

>  <category label>
n

$$$$

###

// values below are Kd; system is CA XIII (Homo sapiens, UniProt Q8N1Q1)
Sequence (Q8N1Q1 whole entry): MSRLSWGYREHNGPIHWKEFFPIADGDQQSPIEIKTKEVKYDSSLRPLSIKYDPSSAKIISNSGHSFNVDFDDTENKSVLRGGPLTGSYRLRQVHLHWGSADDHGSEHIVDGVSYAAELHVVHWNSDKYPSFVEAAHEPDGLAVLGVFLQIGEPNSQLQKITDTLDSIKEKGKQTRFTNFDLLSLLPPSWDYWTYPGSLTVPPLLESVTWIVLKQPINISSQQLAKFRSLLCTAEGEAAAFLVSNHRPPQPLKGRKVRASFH

>  <molecule>
CCC1NC(=O)c2cc(S(N)(=O)=O)c(Cl)cc2N1 (stereo not shown)

>  <Kd>
1100 nM

$$$$
>  <molecule>
NS(=O)(=O)c1cc2c(cc1Cl)NCNS2(=O)=O [Compound 4, hydrochlorothiazide]

>  <Kd>
530 nM

$$$$
>  <molecule>
NS(=O)(=O)c1cc2c(cc1C(F)(F)F)NC(Cc1ccccc1)NS2(=O)=O (stereo not shown) [Compound 11, bendroflumethiazide]

>  <Kd>
910 nM

$$$$
>  <molecule>
NS(=O)(=O)c1cc2c(cc1Cl)N=CNS2(=O)=O [Compound 3, chlorothiazide]

>  <Kd>
39 nM

$$$$

###

The reader will find reported Kd values listed item by item below.
Target: CA I (Homo sapiens, UniProt P00915)
Sequence (P00915 whole entry): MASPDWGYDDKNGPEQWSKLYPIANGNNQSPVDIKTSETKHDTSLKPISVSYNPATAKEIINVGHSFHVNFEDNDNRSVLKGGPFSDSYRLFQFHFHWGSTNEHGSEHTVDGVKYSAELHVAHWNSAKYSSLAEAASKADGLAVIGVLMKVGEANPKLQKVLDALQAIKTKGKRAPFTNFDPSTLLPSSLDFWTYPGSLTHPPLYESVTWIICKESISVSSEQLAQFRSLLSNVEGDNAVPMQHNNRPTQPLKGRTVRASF

>  <molecule>
NS(=O)(=O)c1cc2c(cc1C(F)(F)F)NCNS2(=O)=O [Compound 10, hydroflumethiazide]

>  <Kd>
50 µM

$$$$
>  <molecule>
Cc1ccccc1N1C(=O)c2cc(S(N)(=O)=O)c(Cl)cc2NC1C (stereo not shown) [Compound 20, metolazone]

>  <Kd>
130 µM

$$$$
>  <molecule>
NS(=O)(=O)c1cc2c(cc1Cl)NC(C1CC3C=CC1C3)NS2(=O)=O (stereo not shown) [Compound 6, cyclothiazide]

>  <Kd>
0.94 µM

$$$$
>  <molecule>
NS(=O)(=O)c1ccccc1Cl [Compound 1, 2-chloro-benzenesulfonamide]

>  <Kd>
0.27 µM

$$$$
>  <molecule>
CN1C(CSCC(F)(F)F)Nc2cc(Cl)c(S(N)(=O)=O)cc2S1(=O)=O (stereo not shown) [Compound 7, polythiazide]

>  <Kd>
0.25 µM

$$$$
>  <molecule>
CCC1NC(=O)c2cc(S(N)(=O)=O)c(Cl)cc2N1 (stereo not shown) [Compound 18, quinethazone]

>  <Kd>
51 µM

$$$$
>  <molecule>
NS(=O)(=O)c1cc2c(cc1Cl)CN(C1CCCCC1)C2=O [Compound 17, Clorexolone]

>  <Kd>
1.6 µM

$$$$
>  <molecule>
NS(=O)(=O)c1cc2c(cc1Cl)NC(c1ccccc1)NC2=O (stereo not shown) [Compound 19, fenquizone]

>  <Kd>
13 µM

$$$$
>  <molecule>
C[C@@H]1CCC[C@H](C)N1NC(=O)c1ccc(Cl)c(S(N)(=O)=O)c1 [Compound 13, clopamide]

>  <Kd>
4.9 µM

$$$$
>  <molecule>
C=CCSCC1Nc2cc(Cl)c(S(N)(=O)=O)cc2S(=O)(=O)N1 (stereo not shown) [Compound 9, althiazide]

>  <Kd>
1.6 µM

$$$$
>  <molecule>
NS(=O)(=O)c1cc2c(cc1Cl)N=C(CSCc1ccccc1)NS2(=O)=O [Compound 8, benzthiazide]

>  <Kd>
4.3 µM

$$$$
>  <molecule>
Cc1cccc(C)c1NC(=O)c1cc(S(N)(=O)=O)c(Cl)cc1O [Compound 14, xipamide]

>  <Kd>
56 µM

$$$$
>  <molecule>
NS(=O)(=O)c1cc2c(cc1C(F)(F)F)NC(Cc1ccccc1)NS2(=O)=O (stereo not shown) [Compound 11, bendroflumethiazide]

>  <Kd>
5.8 µM

$$$$
